Below: a set of entries, each annotated with reported log10 of IC50.
Molecular target: mTOR (Homo sapiens)
Construct: FLAG; made in house
Sequence (P42345 1362-2549): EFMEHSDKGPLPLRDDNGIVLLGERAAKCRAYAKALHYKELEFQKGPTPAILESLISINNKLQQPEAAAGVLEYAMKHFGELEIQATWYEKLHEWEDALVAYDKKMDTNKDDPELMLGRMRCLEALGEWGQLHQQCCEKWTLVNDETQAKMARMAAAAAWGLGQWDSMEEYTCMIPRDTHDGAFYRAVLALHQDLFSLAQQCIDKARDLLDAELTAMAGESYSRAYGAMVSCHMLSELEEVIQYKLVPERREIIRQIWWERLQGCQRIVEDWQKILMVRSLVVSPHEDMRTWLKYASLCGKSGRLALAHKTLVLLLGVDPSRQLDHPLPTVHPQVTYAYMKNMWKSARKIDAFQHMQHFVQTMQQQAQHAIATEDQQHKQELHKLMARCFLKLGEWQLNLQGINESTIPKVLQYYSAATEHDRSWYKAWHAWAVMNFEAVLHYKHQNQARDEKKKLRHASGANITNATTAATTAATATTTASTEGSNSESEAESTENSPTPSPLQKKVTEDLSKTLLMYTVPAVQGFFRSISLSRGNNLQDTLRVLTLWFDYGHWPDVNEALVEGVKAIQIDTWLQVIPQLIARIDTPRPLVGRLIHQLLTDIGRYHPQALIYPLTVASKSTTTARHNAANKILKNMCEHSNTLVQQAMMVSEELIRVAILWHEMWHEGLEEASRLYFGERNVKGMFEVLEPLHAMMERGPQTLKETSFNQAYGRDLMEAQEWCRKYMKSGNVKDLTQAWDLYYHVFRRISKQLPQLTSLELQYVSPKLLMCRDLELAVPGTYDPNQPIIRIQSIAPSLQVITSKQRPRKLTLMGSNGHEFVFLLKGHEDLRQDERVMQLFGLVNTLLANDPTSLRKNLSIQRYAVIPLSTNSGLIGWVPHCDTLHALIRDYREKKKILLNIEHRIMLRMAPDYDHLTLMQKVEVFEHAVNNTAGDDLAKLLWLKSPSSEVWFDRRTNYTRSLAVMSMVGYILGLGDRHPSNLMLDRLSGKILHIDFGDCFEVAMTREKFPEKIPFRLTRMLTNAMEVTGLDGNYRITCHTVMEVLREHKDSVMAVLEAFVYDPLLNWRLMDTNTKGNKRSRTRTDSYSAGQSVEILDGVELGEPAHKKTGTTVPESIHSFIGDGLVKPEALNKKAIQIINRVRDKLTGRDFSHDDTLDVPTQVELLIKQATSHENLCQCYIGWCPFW
Assay: mTOR Kinase Assay (Echo)
Format: biochemical
MEASUREMENT KIND: log10 of IC50 (log10 of the value in µM)

COMPOUND	log10 of IC50
C[C@H]1COCCN1c1cc(C2(S(=O)(=O)c3ccc(Cl)cc3)CC2)nc(-c2ccc(NC(=O)NCCN(C)C)cc2)n1 [Example 27g]	-1.72
O=C(Nc1ccc(-c2nc(N3CCOCC3)cc(C3(S(=O)(=O)c4ccc(F)cc4)CC3)n2)cc1)NC1CC1 [Example 36al]	-1.73
C[C@H]1COCCN1c1cc(C2(S(=O)(=O)c3ccccc3)CC2)nc(-c2ccc(NC(=S)NCCC#N)cc2)n1 [Example 37y]	-2.26
C[C@H]1COCCN1c1cc(C2(S(=O)(=O)c3ccccc3)CC2)nc(-c2ccc(NC(=S)NCc3ncc[nH]3)cc2)n1 [Example 37ac]	-1.53
CCNC(=S)Nc1ccc(-c2nc(N3CCOC[C@@H]3C)cc(C3(S(=O)(=O)CCCO)CC3)n2)cc1 [Example 37k]	-1.94
Cc1csc(S(=O)(=O)C2(c3cc(N4CCOC[C@@H]4C)nc(-c4ccc(NC(=O)NCCO)cc4)n3)CC2)n1 [Example 25g]	-2.92
O=C(Nc1ccc(-c2nc(N3CCOCC3)cc(C3(S(=O)(=O)C4CC4)CC3)n2)cc1)NC1CCC1 [Example 13c]	-2.62
